assayed target: transforming growth factor-β1 (TGF-β1) (human) (UniProt P01137)
Sequence (P01137 279-390 limits assumed): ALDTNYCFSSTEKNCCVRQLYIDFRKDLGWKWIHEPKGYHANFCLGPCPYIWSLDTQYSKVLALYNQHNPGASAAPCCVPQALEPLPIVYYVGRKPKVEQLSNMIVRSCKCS
test summary: equilibrium binding
pKd: −log10 of the molar value.
test readout: pKd

ILRWRPKNSVGRWK [peptide 1B …] ... 6.40

P. QLISIQQYGHQEVTRFDFTTTSTST [peptide 2 (FN680-704) …]
Q. QPSHISKYILRWRPKNSVGRWKEAT [peptide 1 (FN634-658) …]
Q: Sorting by pKd in descending order, would P or Q appear first? Selection: enter the item's label.
A: Q
